target: canine CD3 on canine T cells (canine PBMC) (canine, UniProt P27597 22-202); assay: cell-based or functional assay
Sequence (P27597 22-202 limits assumed, chain 1 of 3): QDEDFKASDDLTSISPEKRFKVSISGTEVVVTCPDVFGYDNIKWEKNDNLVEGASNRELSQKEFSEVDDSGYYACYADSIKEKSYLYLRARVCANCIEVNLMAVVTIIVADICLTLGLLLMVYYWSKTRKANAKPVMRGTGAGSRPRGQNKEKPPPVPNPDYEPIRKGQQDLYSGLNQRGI
Sequence (chain, as listed by the source limits assumed, chain 2 of 3): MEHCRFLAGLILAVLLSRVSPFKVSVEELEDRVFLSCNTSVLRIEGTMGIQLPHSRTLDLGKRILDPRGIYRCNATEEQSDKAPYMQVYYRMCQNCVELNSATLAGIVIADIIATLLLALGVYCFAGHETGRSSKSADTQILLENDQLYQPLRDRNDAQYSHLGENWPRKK
Sequence (chain, as listed by the source limits assumed, chain 3 of 3): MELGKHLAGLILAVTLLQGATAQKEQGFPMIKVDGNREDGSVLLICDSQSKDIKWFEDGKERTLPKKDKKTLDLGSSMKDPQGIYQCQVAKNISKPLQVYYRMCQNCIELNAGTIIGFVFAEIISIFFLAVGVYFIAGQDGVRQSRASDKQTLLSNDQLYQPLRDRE
# IFNy Concentration pg/ml, Day 6, IS annotations
Property name: IFNy Concentration pg/ml, Day 6, IS (pg/mL)

- Binder: "PMX180 (monospecific anti-canine CD3, canine IgG-B effector function deficient Fc) (antibody, V domains shown) VH: ELTLQESGPGLVKPSQTLSLTCVVSGGSVTSNYYWNWIRQRPGRGLEWMGYWTGSTNYNPAFQGRISITADTAKKQFSLQLRSMTIEDTAVYYCARRGIPIFFDYWGQGTLVTVSS VL: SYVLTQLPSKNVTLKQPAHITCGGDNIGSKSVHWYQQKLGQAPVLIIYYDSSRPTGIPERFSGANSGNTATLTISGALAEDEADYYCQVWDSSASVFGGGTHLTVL"
  Experimental value: 55.5
- Binder: "PMX193 (monospecific anti-canine CD3, canine IgG-B effector function deficient Fc) (antibody, V domains shown) VH: EVQLVESGGDLVKPGGSLRLSCVASGFTFSTYHMSWVRQAPGKGLQWVAYISSGGSRTNYADAVKGRFTISRDNAKNTLYLQMNSLRAEDAAVFYCARHYGSSLFDYWGQGTLVTVSS VL: DIVMTQTPLSLSVSPGEPASISCKASQSLLHINGNTYLYWFRQKPGQSPQRLIYKVSNRDPGVPDRFSGSGSGTDFTLRISRVEADDAGVYYCGQGIQDPTFGKGTHLEIK"
  Experimental value: 52.6
